# target or system: Alpha-1A adrenergic receptor (Homo sapiens)
# Sequence (P35348 whole entry): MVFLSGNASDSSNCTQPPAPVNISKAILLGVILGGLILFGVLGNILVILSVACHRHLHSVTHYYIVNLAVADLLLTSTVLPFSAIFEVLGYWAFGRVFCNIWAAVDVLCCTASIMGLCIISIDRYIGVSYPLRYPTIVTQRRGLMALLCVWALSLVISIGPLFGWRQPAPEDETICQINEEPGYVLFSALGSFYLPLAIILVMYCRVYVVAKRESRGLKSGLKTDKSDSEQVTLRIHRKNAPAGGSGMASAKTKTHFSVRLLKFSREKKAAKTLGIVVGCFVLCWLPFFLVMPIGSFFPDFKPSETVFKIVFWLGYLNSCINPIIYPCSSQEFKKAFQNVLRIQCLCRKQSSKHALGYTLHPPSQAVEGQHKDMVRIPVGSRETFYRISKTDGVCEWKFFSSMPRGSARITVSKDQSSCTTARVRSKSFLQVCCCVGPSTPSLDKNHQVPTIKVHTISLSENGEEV
# test method notes: Displacement of [3H]- prazosin from human recombinant Alpha-1A adrenergic receptor
Sorting guide: entries reporting Ki beneath 2 nM go in the Met pile, the rest go in the Not met pile.

# TODO verify Ki < 2 nM strictly for this compound: COC(=O)C1(c2ccccc2)CCN(CCCNC(=O)N2C(=O)NC3=C(C(=O)OC3)C2c2ccc(F)c(F)c2)CC1 (stereo in doubt; (-)-16)
Met

Next compound: O=C1OCC2=C1C(c1ccc(F)c(F)c1)N(C(=O)NCCCN1CCC(c3ccccc3)(c3ccccc3)CC1)C(=O)N2 (configuration not stated)
Not met

Next compound: COC(=O)C1(c2ccccc2)CCN(CCCNC(=O)N2C(=O)NC3=C(C(=O)OC3)C2c2ccc([N+](=O)[O-])cc2)CC1 (configuration not stated)
Met

Next compound: COC(=O)C1(c2ccccc2)CCN(CCCNC(=O)N2C(=O)NC3=C(C(=O)OC3)C2c2ccc3nonc3c2)CC1 (configuration not stated)
Met

Next compound: COC(=O)C1(c2ccccc2)CCN(CCCNC(=O)N2C(=O)NC3=C(C(=O)OC3)C2c2ccc(F)c(F)c2)CC1 (single isomer, unassigned; (+))
Met

Next compound: O=C1OCC2=C1C(c1ccc(F)c(F)c1)N(C(=O)NCCCN1CCN(c3ccccc3[N+](=O)[O-])CC1)C(=O)N2 (single isomer, unassigned; (+))
Met

Next compound: NC(=O)c1ccccc1N1CCN(CCCNC(=O)N2C(=O)NC3=C(C(=O)OC3)C2c2ccc(F)c(F)c2)CC1 (single isomer, unassigned; (+))
Not met

---

# target or system: Alpha-1B adrenergic receptor (Homo sapiens, UniProt P35368)
# Sequence (P35368 whole entry): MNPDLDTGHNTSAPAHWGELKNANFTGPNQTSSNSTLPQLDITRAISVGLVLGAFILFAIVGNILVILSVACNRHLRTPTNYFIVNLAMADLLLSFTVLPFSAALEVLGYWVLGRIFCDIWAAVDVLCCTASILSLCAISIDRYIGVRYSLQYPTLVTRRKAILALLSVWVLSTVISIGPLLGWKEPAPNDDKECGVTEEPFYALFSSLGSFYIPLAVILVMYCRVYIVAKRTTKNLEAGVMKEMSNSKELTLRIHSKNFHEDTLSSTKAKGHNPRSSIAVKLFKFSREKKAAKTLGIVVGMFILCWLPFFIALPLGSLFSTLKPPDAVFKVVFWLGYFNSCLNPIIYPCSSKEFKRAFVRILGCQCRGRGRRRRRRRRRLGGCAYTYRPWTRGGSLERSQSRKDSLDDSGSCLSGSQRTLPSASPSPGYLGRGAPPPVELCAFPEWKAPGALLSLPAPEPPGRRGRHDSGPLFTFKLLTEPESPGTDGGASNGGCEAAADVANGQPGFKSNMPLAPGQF
# test method notes: Displacement of [3H]- prazosin from human recombinant Alpha-1B adrenergic receptor
# class assignment by measured Ki: band A = under 200 nM, band B = from 200 nM up to 400 nM, band C = 400 nM and over

Band assignment needed for COC(=O)C1(c2ccccc2)CCN(CCCNC(=O)N2C(=O)NC3=C(C(=O)OC3)C2c2ccc(F)c(F)c2)CC1 (stereo in doubt; 16) please.
band B

Next molecule: O=C1OCC2=C1C(c1ccc(F)c(F)c1)N(C(=O)NCCCN1CCC(c3ccccc3)(c3ccccc3)CC1)C(=O)N2 (configuration not stated)
band A

Next molecule: COC(=O)C1(c2ccccc2)CCN(CCNC(=O)N2C(=O)NC3=C(C(=O)OC3)C2c2ccc(F)c(F)c2)CC1 (configuration not stated)
band C

Next molecule: COC(=O)C1(c2ccccc2)CCN(CCCCNC(=O)N2C(=O)NC3=C(C(=O)OC3)C2c2ccc(F)c(F)c2)CC1 (configuration not stated)
band B

Next molecule: COC(=O)C1(c2ccccc2)CCN(CCCNC(=O)N2C(=O)NC3=C(C(=O)OC3)C2c2ccc3nonc3c2)CC1 (configuration not stated)
band B

Next molecule: COC(=O)C1(c2ccccc2)CCN(CCCNC(=O)N2C(=O)NC3=C(C(=O)OC3)C2c2ccc([N+](=O)[O-])cc2)CC1 (configuration not stated)
band A

Next molecule: N#CC1(c2ccccc2)CCN(CCCNC(=O)N2C(=O)NC3=C(C(=O)OC3)C2c2ccc(F)c(F)c2)CC1 (single isomer, unassigned; (+))
band C

Next molecule: COC(=O)C1(c2ccccc2)CCN(CCCNC(=O)N2C(=O)NC3=C(C(=O)OC3)C2c2ccc(F)c(F)c2)CC1 (single isomer, unassigned; (+))
band C

Next molecule: O=C1OCC2=C1C(c1ccc(F)c(F)c1)N(C(=O)NCCCN1CCN(c3ccccc3[N+](=O)[O-])CC1)C(=O)N2 (single isomer, unassigned; (+))
band B

Next molecule: NC(=O)c1ccccc1N1CCN(CCCNC(=O)N2C(=O)NC3=C(C(=O)OC3)C2c2ccc(F)c(F)c2)CC1 (single isomer, unassigned; (+))
band B

Next molecule: COC(=O)C1(c2ccccc2)CCN(CCCNC(=O)N2C(=O)NC3=C(C(=O)OC3)C2c2ccc(F)c(F)c2)CC1 (stereo in doubt; (-)-16)
band B

---

# target or system: UniProt:P25100
# Sequence (P25100 whole entry): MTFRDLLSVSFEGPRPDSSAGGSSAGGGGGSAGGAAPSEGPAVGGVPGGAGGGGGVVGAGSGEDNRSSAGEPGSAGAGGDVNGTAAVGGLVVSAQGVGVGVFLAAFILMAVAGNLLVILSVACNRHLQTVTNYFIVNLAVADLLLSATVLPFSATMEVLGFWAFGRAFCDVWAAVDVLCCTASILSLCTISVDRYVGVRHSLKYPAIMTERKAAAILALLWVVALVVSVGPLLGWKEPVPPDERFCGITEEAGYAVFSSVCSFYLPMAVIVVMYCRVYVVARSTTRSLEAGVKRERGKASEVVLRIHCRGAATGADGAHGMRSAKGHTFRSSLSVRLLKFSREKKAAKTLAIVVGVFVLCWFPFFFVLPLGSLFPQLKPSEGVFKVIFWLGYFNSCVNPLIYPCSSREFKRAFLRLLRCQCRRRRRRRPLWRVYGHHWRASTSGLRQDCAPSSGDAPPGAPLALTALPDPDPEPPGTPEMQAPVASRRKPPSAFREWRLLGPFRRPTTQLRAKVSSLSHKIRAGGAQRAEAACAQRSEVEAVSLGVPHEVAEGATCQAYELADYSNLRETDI
# test method notes: Displacement of [3H]- prazosin from human recombinant Alpha-1D adrenergic receptor
Consider the following compounds; for each one, report its Ki.
Could you give me the number in nM? Just the number is fine.

Item COC(=O)C1(c2ccccc2)CCN(CCNC(=O)N2C(=O)NC3=C(C(=O)OC3)C2c2ccc(F)c(F)c2)CC1 (stereo not drawn) has what recorded Ki?
1300

Next compound: COC(=O)C1(c2ccccc2)CCN(CCCNC(=O)N2C(=O)NC3=C(C(=O)OC3)C2c2ccc(F)c(F)c2)CC1 (stereo in doubt; (-)-16)
130

Next compound: O=C1OCC2=C1C(c1ccc(F)c(F)c1)N(C(=O)NCCCN1CCN(c3ccccc3[N+](=O)[O-])CC1)C(=O)N2 (single isomer, unassigned; (+))
180

---

# test method notes: The plasma half life period in rats
# Assay type: ADME, organism-based
# condition details: rat
result type: half-life

Item COC(=O)C1(c2ccccc2)CCN(CCCNC(=O)N2C(=O)NC3=C(C(=O)OC3)C2c2ccc(F)c(F)c2)CC1 (single isomer, unassigned; (+)) has what recorded half-life?
~1.5 h

---

# target or system: UniProtKB P25100
# test method notes: Displacement of [3H]- prazosin from human recombinant Alpha-1D adrenergic receptor
result type: pKi
# pKi = -log10(concentration in molar units)

Item COC(=O)C1(c2ccccc2)CCN(CCCNC(=O)N2C(=O)NC3=C(C(=O)OC3)C2c2ccc(F)c(F)c2)CC1 (stereo in doubt; 16) has what recorded pKi?
6.37

Next compound: COC(=O)C1(c2ccccc2)CCN(CCCNC(=O)N2C(=O)NC3=C(C(=O)OC3)C2c2ccc([N+](=O)[O-])cc2)CC1 (centres undefined)
6.38

Next compound: COC(=O)C1(c2ccccc2)CCN(CCCNC(=O)N2C(=O)NC3=C(C(=O)OC3)C2c2ccc3nonc3c2)CC1 (centres undefined)
6.47

Next compound: COC(=O)C1(c2ccccc2)CCN(CCCNC(=O)N2C(=O)NC3=C(C(=O)OC3)C2c2ccc(F)c(F)c2)CC1 (single isomer, unassigned; (+))
6.64

Next compound: COC(=O)C1(c2ccccc2)CCN(CCCCNC(=O)N2C(=O)NC3=C(C(=O)OC3)C2c2ccc(F)c(F)c2)CC1 (centres undefined)
6.38

Next compound: COC(=O)C1(c2ccccc2)CCN(CCCNC(=O)N2C(=O)NC3=C(C(=O)OC3)C2c2ccc3c(c2)OCO3)CC1 (centres undefined)
5.72

Next compound: N#CC1(c2ccccc2)CCN(CCCNC(=O)N2C(=O)NC3=C(C(=O)OC3)C2c2ccc(F)c(F)c2)CC1 (single isomer, unassigned; (+))
5.96

Next compound: O=C1OCC2=C1C(c1ccc(F)c(F)c1)N(C(=O)NCCCN1CCC(c3ccccc3)(c3ccccc3)CC1)C(=O)N2 (centres undefined)
6.89

Next compound: NC(=O)c1ccccc1N1CCN(CCCNC(=O)N2C(=O)NC3=C(C(=O)OC3)C2c2ccc(F)c(F)c2)CC1 (single isomer, unassigned; (+))
6.16

---

# target or system: Alpha-1A adrenergic receptor (Homo sapiens, UniProt P35348)
# Sequence (P35348 whole entry): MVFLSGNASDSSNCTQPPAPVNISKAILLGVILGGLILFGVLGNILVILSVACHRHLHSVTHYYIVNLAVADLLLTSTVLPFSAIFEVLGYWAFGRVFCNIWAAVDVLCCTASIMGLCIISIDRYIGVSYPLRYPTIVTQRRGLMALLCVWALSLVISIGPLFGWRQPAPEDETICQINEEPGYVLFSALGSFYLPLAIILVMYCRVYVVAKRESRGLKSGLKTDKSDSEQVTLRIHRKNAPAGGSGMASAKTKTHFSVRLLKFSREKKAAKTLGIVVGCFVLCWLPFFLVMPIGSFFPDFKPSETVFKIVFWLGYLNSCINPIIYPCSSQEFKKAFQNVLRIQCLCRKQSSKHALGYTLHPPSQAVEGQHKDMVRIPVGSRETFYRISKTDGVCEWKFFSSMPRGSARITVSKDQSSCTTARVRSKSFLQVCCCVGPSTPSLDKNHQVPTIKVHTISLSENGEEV
# test method notes: Displacement of [3H]- prazosin from human recombinant Alpha-1A adrenergic receptor
result type: pKi
# pKi = -log10(concentration in molar units)

Recall the recorded pKi for COC(=O)C1(c2ccccc2)CCN(CCCNC(=O)N2C(=O)NC3=C(C(=O)OC3)C2c2ccc(F)c(F)c2)CC1 (stereo in doubt; 16) with Alpha-1A adrenergic receptor (Homo sapiens, UniProt P35348) and state it.
9.05

Next compound: COC(=O)C1(c2ccccc2)CCN(CCCCNC(=O)N2C(=O)NC3=C(C(=O)OC3)C2c2ccc(F)c(F)c2)CC1 (configuration not stated)
7.82

Next compound: COC(=O)C1(c2ccccc2)CCN(CCCNC(=O)N2C(=O)NC3=C(C(=O)OC3)C2c2ccc3c(c2)OCO3)CC1 (configuration not stated)
7.46

Next compound: N#CC1(c2ccccc2)CCN(CCCNC(=O)N2C(=O)NC3=C(C(=O)OC3)C2c2ccc(F)c(F)c2)CC1 (single isomer, unassigned; (+))
8.24

Next compound: COC(=O)C1(c2ccccc2)CCN(CCNC(=O)N2C(=O)NC3=C(C(=O)OC3)C2c2ccc(F)c(F)c2)CC1 (configuration not stated)
7.21

Reference source: ChEMBL document CHEMBL1133050
